- assay-info: yeast display, Sf9 membrane polyspecificity reagent, FACS + sequencing; frameworks hold sequencing errors
quantity-name: polyreactivity (PSR sort gate)

Below: 4 sequences and their reported polyreactivity (PSR sort gate).
seq-string	polyreactivity (PSR sort gate)
QVQLQESGGGLVLAGGSLRLSCADSGYISWSFTMVWYRKAPGKEREFVAGITYGGITYYADSVKGRFTISRDNAKNTVYLQMNSLKPEDTAVYYCAAPQTYPYVYVYWGQGTQLTVSS	high polyreactivity
QVQLVESGGGLVQAGGSLRISCAASGFTFYRYAMGWYRPAPGKERELVASIRRSDGSTSYADSVKGRFTISRDNAKNTFYLQMNSLKPEDTAVYYCAARYAGSSRYDYWGQGTQVTVSS	high polyreactivity
QVQLVESGGGLVQAGGSHRFRCAASGSTIVSDAMGLYRHAPGKERELDATISWRGGSTYYADSVKGRFTISRDNAKNTVYLQMNSLKPEDTAVYDCAADLWHSQYYYGYEYWGQGTQVNVSS	low polyreactivity
QVQLVESGGGLVQAGGSLRLSCAASGITFKSYDMGWYRQAPGKERELVAAITSGVSTHYADSVKGRFTISRDNAKNTVYLQMNSLKPEDTAVYYCAADYTWYYPYWIMDYWGQGTQVTVSS	low polyreactivity

[Q] Tell me the measured polyreactivity (PSR sort gate) of QVQLVESGGGLVQAGGSLRLSCAASGSIFNGYDMGWYRQAPGKERELVAAISLSGDSTYYADSVKGRFTISRDYAKKTVYLQMNSLKPEDTAVYYCAAADYFRSYWGQGTQVTVSS , please.
[A] low polyreactivity

====

- assay-info: yeast display, Sf9 membrane polyspecificity reagent, FACS + sequencing; frameworks hold sequencing errors
quantity-name: polyreactivity (PSR sort gate)

Below: 10 sequences and their reported polyreactivity (PSR sort gate).
seq-string	polyreactivity (PSR sort gate)
QVQLVESGGGLVQAGGSLRLSCAASGRIFRIYAMGWYRQAPGKERELVAAISWSGGRTYYADSVKGRFTISRDNAKNTVYLQMNSLIREDTAVYYCNADSYSRRGFEYDYWGQGTQVTVSS	high polyreactivity
QVQLVESGGGLVQAGGSLRLSCAASGSIFPGNAMGWYRQAPGKERELVAVIDFSGASTYYADSVKGRFTISRDNAKNTVYLQMNSLKPEDTADYWGQGSQVTVSS	low polyreactivity
QVQLVESGGGLVQAGGSLRLSCAASGFIFYVYAMGWYRQAPGKERELVAAISADGGITYYADSVKGRFTISRDNAKNTVYLQMNSLKPEDTAVYYCNTLGDQDAYAGFRLDYWVQGTQVTVSS	low polyreactivity
QVQLVESGGGLVQAGGSLRLSCAASGSIFYSYMGWYRQAPGKERECVAAINQRGSSTYYADSVKGRFTISRDNAKNTVYLQMNSLKPEDTAVYDCAAVFFGVYTSRRYYWGQGTQVTVSS	high polyreactivity
QVQLVESGGGLVQAGGSLRLSCAPSGITFWVYVMGWYRQAPGKEREFVADISSGAGTTYYADSVKGRFTISRDNAKNTVYLQMNSLKPEDTAVYYCAARRWWPQWYDYWGQGTQVTVSS	high polyreactivity
QVQLVESGGGLVQAGGSLRLSCAASGSTFRYYAMGWYRQAPGKERELVAGISSSGGSTYYADSVKGRFTISRDNAKNTVYLQMNSLNPEDTAVYYCIAARGTSRSWAVFADYDYWGQGTQVTVSS	high polyreactivity
QVQLVESGGGLVQAGGSLRLSCAASGSIFFNTMGWYIQAPGKERELVAAISRSGGSTYYADSVKGRFTISRDNAKNTVYLQMNSLKPEDTAVYYCNALRWSQYTYSSRLGHFDSWGQGTQVTVSS	high polyreactivity
QVQLVESGGGLVQAGGSLRLSCAASGSTFVGYAMRGYRQAPGKERELVADIDSIGGSTYYADSVKGRFTISRDNAKNTVYLQMNSLKPEDTAVYYCAARRFDTALVLYDYWGQGTQVTVSS	low polyreactivity
QVQLVESGGGLVQAGGSLLLSCAASGSIFSAYAMGWDRQAPGKERQLVAGISKRGGSTYYADSVKGRFTISRDNAKNTVYLQMNSLKPEDTAVYYCNAARYPYARAVTYHYPSYGYWGQGTQVTVSS	high polyreactivity
QVQLVESGGGLDQAGGSLRLSCAASGSTLGRYTMGWYRQAPGKERELVAAITRGGRTNYADSVKGRFTISRDNAKNTVYLQMNSLKPEDTAVYYCAKLYRYGDYDYWGQGTQVTVSS	high polyreactivity

[Q] Tell me the measured polyreactivity (PSR sort gate) of QVQLVESGGGLVQAGGSLRLSCAASGLTFLPNAMGWYRQAPGKERELVAAITNGGGTNYADSVKGRFTISRDNAKNTVYLQMNSLKPEDTAVYYCNADSTYFGGHDYWGQGTQVTVSS , please.
[A] low polyreactivity

[Q] Repeat with QVQLVESGGGLVQAGGSLRLTCDASGRTFYQNTMGWYRQAPGKERELVAAISYRVGRTYYADSVKGRFSISSDNAKNTVYLQMNSLKPEDTAVYYCAAGVWWWTIPYEYWGQGSQVTVSS
[A] high polyreactivity

[Q] Repeat with QVQLVESGGALVQAGGSLRLSCAASGFIFFQYAMGWYRQAPGKERELVAAISGSGVTTYYADSVKGRFTISRDNAKNTVYLQMNSLKPEDTAVYYCNAALRWKYDWGQGTQVTVSS
[A] low polyreactivity

[Q] Repeat with QVQLVESGGGLVQAGGSLRLSCAASGFIFKVNAMGCYRQAPGKERELVAAISRRGGTTYYADSVKGRFTISRDNAKNTVYFQLNSLKPEDTAVYYCYRARSYGVTDKVAILADDYWGQGTQVTVSS
[A] high polyreactivity

[Q] Repeat with QVQLVESGGALVQAGGSLRLSCAASGSTFSYNAMGWYSQAPGKERELVAAISSRGSSTYYADSVKGRFTISRDNAKNTVYFQINSLKPEDTAVYDCAARSYWGGLRYDYWGQGTQVTVSS
[A] high polyreactivity

[Q] Repeat with QVQLVESGGGLVQAGGSLRLSCAASGRIFGVNAMGWYRQAPWKERELVAAINYSGGRTSYADSVKGRFTISRDNAKNTVYLQMNSLKPEDTAVYYCNAGGRRRIFAHSSTGDYWGQGTQVTVSS
[A] high polyreactivity

====

- assay-info: yeast display, Sf9 membrane polyspecificity reagent, FACS + sequencing; frameworks hold sequencing errors
quantity-name: polyreactivity (PSR sort gate)

Below: 5 sequences and their reported polyreactivity (PSR sort gate).
seq-string	polyreactivity (PSR sort gate)
QVQLVESGGGLVQAGGSLRLSCAASGRTFSIYAMGWYRQAPGKERELVAAISRGVTTYADSVKGRFTISRDNAKNTVYLQMNSLKPEDTAVYYCNARTVVYVRGGYWGQGTQVTVSS	low polyreactivity
QVQLVESGGGLVQAGGRLRLSCAATGRTFLPNAMGWYRQAPGKERELVASINGDGTTNYADSVKGRFTISRDNAKNTVYLQMNSLKPEDTAVYYCAADGYGGYYRGTYYTVYYWGQGTQVTLSS	low polyreactivity
QVQLVESRGGLVQAGGSLRLSCAASGLIFLGYAMGWYRQAPGKERELVASIRTGGSTSYADSVKGRFTISRDNAKNTVYLQMNSLKPEDTAVYYCAADRGRPNLPGDYWGQGTQVTVSS	low polyreactivity
QVQLVESGGGLVQAGGSLRLSCAASGRIRGNVMGWYRQAPGKERELVAAISKSGGSTYYADSVKGRFTISRDNAKNTVYLQMNSLKPEDTAVYYCAAAYGQYTSYYRFGSWGQGTQVTVSS	high polyreactivity
QVQLVESGGGLVQAGGSLRLSCAASGFTFRYYAMGSYRQAPGKERELVAAISAGGGSTYYADSVKGRFTISRDNAKNTVYLQMNSLKPEDTAVYYCAAAGARPGYDYWGQGTQVTVSS	high polyreactivity

[Q] Tell me the measured polyreactivity (PSR sort gate) of QVQLVESGGGLVQAGGSLRLSCAASGFTFAHNAMGWYRQAPGKERELLAAISSRGGRTFYADSVKGRFTISRDNAKNTVYLQMNSLKPEDTAVYYCNRVRSVTPSPRYYYWGQGTQVTVSS , please.
[A] high polyreactivity

[Q] Repeat with QVQLVESGGGLVQAGGSLRLSCAASGSTFLRYAMGWYRQAPGKERELVAAISSGTSTNYADSVKGRFTISRDNAKNTVYLQMNSLKPEDTAVYYCAAVYAWLFWYDSWGQGTQVTVSS
[A] low polyreactivity

[Q] Repeat with QVQLVESGGGLVQAGGSLRLSCAASGRIFEVYTMGWYRQAPGKERELVAAIDRSTGSTYYADSVKGRFTISRDNAKNTVYLQMHSLKPEDTAVYYCAARGTFLGTRPLGRFDYWGQGTQVTVSS
[A] low polyreactivity

[Q] Repeat with QVQLVESGGGLVQAGGSLRLSCAASGSIFFWYTMGWYRQAPGKERELVATITGSGSSTTYADSVKGRFTISRDNAKNTVYLQMNSLKPEDTAVYYCAAADIIDHSFPYDYWGQGTQVTVSS
[A] low polyreactivity

[Q] Repeat with QVQLVESGGGLVQAGGSLRISCAASGSTLYRNAMGWYRQAPGKERELVAAISRTGGRTYYADSVKGRCTISRDNANNTVYLQMNSLKPEETAVYYCNTLTPSYTSGTHTFYSWGQGTQVTVSS
[A] high polyreactivity

[Q] Repeat with QVELVESGGGLVQAGGSLRLSCAASGFTFDRYAMGWYRQAPGTERELVAALTRRGTTTYYADSVKGRFTISRDNAKNTVYLQMNSLKPEDTAVYYCAAKRGSVSRPDYGANDESWGQGTQVTVSS
[A] high polyreactivity
